Could you please report measured koff for the items listed next?
# ASSAYED SYSTEM: T1, Recombinant human CD4 (R&D Systems, Cat. 10327-CD) (human, UniProt P01730 26-390, limits assumed)
# T1 construct: Bought protein; also called huCD4
# TEST DETAILS: BLI (Octet Red384), purified antibody on anti-mouse Fc sensors, human CD4 100/50/25 nM, global 1:1 fit;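 also: antibodies loaded at 10 µg/mL, curves fitted across association and dissociation phases, with an unrelated mouse-derived antibody serving as internal reference control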
# number only, unit s⁻¹ dropped from output

Please fill in: koff reported for 75110_08H06A (antibody, V domains shown, Tested as antibody purified from AlivaMab Mouse Kappa hybridoma (human V regions, kappa light chain, mouse Fc captured by anti-mouse Fc sensors)) VH: EVQLVESGGGLVQPGGSLRLSCAASGFTFSNYDMHWVRQATGKGLEWVSTIGTAGDTYYPGSVKGRFTISRENAKNSLYLQMNSLRAGDTAVYYCARGGYDYYGMDVWGQGTTVTVSS VL: EIVLTQSPGTLSLSPGERATLSCRASQSITSIYLAWYRQKPGQAPRLLIYGASSRATGIPDRFSGSGSGTDFTLTISRLEPEDFAVYYCQQYGSSPFTFGPGTKVDIK = 0.00043

Please fill in: koff reported for 75110_13P21A (antibody, V domains shown, Tested as antibody purified from AlivaMab Mouse Kappa hybridoma (human V regions, kappa light chain, mouse Fc captured by anti-mouse Fc sensors)) VH: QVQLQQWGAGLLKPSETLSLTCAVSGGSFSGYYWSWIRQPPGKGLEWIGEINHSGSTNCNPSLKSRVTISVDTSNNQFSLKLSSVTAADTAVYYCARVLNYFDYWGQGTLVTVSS VL: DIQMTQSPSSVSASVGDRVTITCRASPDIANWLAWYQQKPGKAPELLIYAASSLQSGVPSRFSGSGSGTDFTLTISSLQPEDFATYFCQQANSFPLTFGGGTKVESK = 0.00029

Please fill in: koff reported for 75110_14N19A (antibody, V domains shown, Tested as antibody purified from AlivaMab Mouse Kappa hybridoma (human V regions, kappa light chain, mouse Fc captured by anti-mouse Fc sensors)) VH: QVQLQESGPGLVKPSETLSLTCTVSGGSISRYYWSWIRQPAGKGLEWIGRICTSENPNYNPALKSRVTMSVDTSKNQFSLKLSSVTAADTAVYYCARELERLNYYGMDVWGQGTTVTVSS VL: DIQMTQFPSSLSASVGDRVTITCQASQDISNYLNWYQQKPGKAPKLLIYDASNLESGVPSRFSGRGSGTDFTFTISSLQPEDFATFYCQQYDTLPITFGQGTRLEIK = 0.0014

Please fill in: koff reported for 75110_10K21A (antibody, V domains shown, Tested as antibody purified from AlivaMab Mouse Kappa hybridoma (human V regions, kappa light chain, mouse Fc captured by anti-mouse Fc sensors)) VH: EVQLVESGGGLVQPGGSLRLSCAASGFTFSSYWMTWVRQAPGKGLEWVANIKQDGSEKYYVDSVKGRFTISRDNAKNSLYLQMNSLRAEDTAVYYCVRDRYDALDIWGQGTMVTVSS VL: AIQMTQSPSSLSASVGDRVTITCRASQGIRNDLNWYQQKPGKAPKLLIYAASSLQSGVPSRFSGSGSGTDFTLTISSLQAEDFATYYCLKDYNYPYTFGQGTKLEIK = 0.00049
